Each recorded value in this set is attributed to patent US7906507B2.

Quick list: log10(EC50) per entry.
- System Under Test: UniProt:P43220
- Sequence (P43220 24-463): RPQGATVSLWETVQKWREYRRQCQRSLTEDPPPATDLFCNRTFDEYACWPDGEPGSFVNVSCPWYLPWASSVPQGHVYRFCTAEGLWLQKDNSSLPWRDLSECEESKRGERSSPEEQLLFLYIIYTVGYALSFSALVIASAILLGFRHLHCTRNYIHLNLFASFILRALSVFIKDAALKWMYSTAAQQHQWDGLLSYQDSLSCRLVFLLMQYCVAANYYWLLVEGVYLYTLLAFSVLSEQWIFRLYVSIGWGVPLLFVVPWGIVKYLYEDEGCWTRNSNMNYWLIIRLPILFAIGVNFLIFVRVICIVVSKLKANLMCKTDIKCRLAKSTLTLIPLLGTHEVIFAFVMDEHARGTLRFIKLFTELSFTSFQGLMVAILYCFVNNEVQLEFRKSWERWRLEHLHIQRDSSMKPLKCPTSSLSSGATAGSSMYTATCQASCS
- Assay Protocol: Functional cell-based assay: cAMP functional assay
Use the decimal logarithm of EC50 (nM).

Example molecules with recorded log10(EC50):
CN1C(=O)C(c2ccc(OCc3ccc(Cl)c(Cl)c3)cc2)Oc2cc3c(cc21)C[C@@H](C(=O)N[C@@H](Cc1ccc(-c2ccc(C#N)cc2)cc1)C(=O)O)N(CC1(c2ccccc2)CCCC1)C3 (stereo partly shown): 3.23
N#Cc1ccc(-c2ccc(C[C@H](NC(=O)[C@@H]3Cc4cc5c(cc4CN3C(=O)OC3CCOCC3)OC(c3ccc(OCc4ccc(Cl)c(Cl)c4)cc3)C(=O)N5)C(=O)O)cc2)cc1 (stereo partly shown): 2.78
CC(C)(C)OC(=O)N1Cc2cc3c(cc2C[C@H]1C(=O)N[C@@H](Cc1ccc(-c2ccc(C#N)cc2)cc1)C(=O)O)NC(=O)C(c1ccc(OCc2ccc(Cl)c(Cl)c2)cc1)O3 (stereo partly shown): 2.46
N#Cc1ccc(-c2ccc(C[C@H](NC(=O)[C@@H]3Cc4cc5c(cc4CN3C(=O)OCC3CC3)OC(c3ccc(OCc4ccc(Cl)c(Cl)c4)cc3)C(=O)N5)C(=O)O)cc2)cc1 (stereo partly shown): 2.43
N#Cc1ccc(-c2ccc(C[C@H](NC(=O)[C@@H]3Cc4cc5c(cc4CN3C(=O)c3ccccc3)OC(c3ccc(OCc4ccc(Cl)c(C(F)(F)F)c4)cc3)C(=O)N5)C(=O)O)cc2)cc1 (stereo partly shown): 2.93

Ask: log10(EC50) for N#Cc1ccc(-c2ccc(C[C@H](NC(=O)[C@@H]3Cc4cc5c(cc4CN3S(=O)(=O)c3ccccc3)OC(c3ccc(OCc4ccc(Cl)c(Cl)c4)cc3)C(=O)N5)C(=O)O)cc2)cc1 (stereo partly shown) ?
Result: 2.65

Ask: log10(EC50) for CC[C@@H](c1ccccc1)N1Cc2cc3c(cc2C[C@H]1C(=O)N[C@@H](Cc1ccc(-c2ccc(OC)cc2)cc1)C(=O)O)N(C)C(=O)[C@@H](c1ccc(OCc2ccc(Cl)c(Cl)c2)cc1)O3 ?
Result: 2.86

Ask: log10(EC50) for N#Cc1ccc(-c2ccc(C[C@H](NC(=O)[C@@H]3Cc4cc5c(cc4CN3C(=O)c3ccco3)OC(c3ccc(OCc4ccc(Cl)c(Cl)c4)cc3)C(=O)N5)C(=O)O)cc2)cc1 (stereo partly shown) ?
Result: 2.62

Ask: log10(EC50) for CC(C)OC(=O)N1Cc2cc3c(cc2C[C@H]1C(=O)N[C@@H](Cc1ccc(-c2ccc(C#N)cc2)cc1)C(=O)O)N(C)C(=O)C(c1ccc(OCc2ccc(Cl)c(Cl)c2)cc1)O3 (stereo partly shown) ?
Result: 3.04

Ask: log10(EC50) for Cc1ccc(-c2ccc(C[C@H](NC(=O)[C@@H]3Cc4cc5c(cc4CN3Cc3ccccn3)OC(c3ccc(OCc4ccc(Cl)c(Cl)c4)cc3)C(=O)N5)C(=O)O)cc2)cc1 (stereo partly shown) ?
Result: 3.30

Ask: log10(EC50) for CC(C)(C)OC(=O)N1Cc2cc3c(cc2C[C@H]1C(=O)N[C@@H](Cc1ccc(-c2ccc(C#N)cc2)cc1)C(=O)O)NC(=O)C(c1ccc(OCc2cnc(Cl)c(Cl)c2)cc1)O3 (stereo partly shown) ?
Result: 2.68

Ask: log10(EC50) for N#Cc1ccc(-c2ccc(C[C@H](NC(=O)[C@@H]3Cc4cc5c(cc4CN3Cc3ccccc3Cl)OC(c3ccc(OCc4ccc(Cl)c(Cl)c4)cc3)C(=O)N5)C(=O)O)cc2)cc1 (stereo partly shown) ?
Result: 3.00

Ask: log10(EC50) for N#Cc1ccc(-c2ccc(C[C@H](NC(=O)[C@@H]3Cc4cc5c(cc4CN3C(=O)c3cccc4ccccc34)OC(c3ccc(OCc4ccc(Cl)c(Cl)c4)cc3)C(=O)N5)C(=O)O)cc2)cc1 (stereo partly shown) ?
Result: 3.04

Ask: log10(EC50) for N#Cc1ccc(-c2ccc(C[C@H](NC(=O)[C@@H]3Cc4cc5c(cc4CN3C(=O)c3cccc(C(F)(F)F)c3)OC(c3ccc(OCc4ccc(Cl)c(Cl)c4)cc3)C(=O)N5)C(=O)O)cc2)cc1 (stereo partly shown) ?
Result: 3.20

Ask: log10(EC50) for COc1ccccc1CN1Cc2cc3c(cc2C[C@H]1C(=O)N[C@@H](Cc1ccc(-c2ccc(C#N)cc2)cc1)C(=O)O)NC(=O)C(c1ccc(OCc2ccc(Cl)c(Cl)c2)cc1)O3 (stereo partly shown) ?
Result: 2.70

Ask: log10(EC50) for CC[C@@H](c1ccccc1)N1Cc2cc3c(cc2C[C@H]1C(=O)N[C@@H](Cc1ccc(-c2ccc(Cl)cc2)cc1)C(=O)O)N(C)C(=O)[C@H](c1ccc(OCc2ccc(Cl)c(Cl)c2)cc1)O3 ?
Result: 2.14

Ask: log10(EC50) for N#Cc1ccc(-c2ccc(C[C@H](NC(=O)[C@@H]3Cc4cc5c(cc4CN3Cc3nccs3)OC(c3ccc(OCc4ccc(Cl)c(Cl)c4)cc3)C(=O)N5)C(=O)O)cc2)cc1 (stereo partly shown) ?
Result: 2.75

Ask: log10(EC50) for CC(C)C(=O)N1Cc2cc3c(cc2C[C@H]1C(=O)N[C@@H](Cc1ccc(-c2ccc(C#N)cc2)cc1)C(=O)O)NC(=O)C(c1ccc(OCc2ccc(Cl)c(Cl)c2)cc1)O3 (stereo partly shown) ?
Result: 3.08

Ask: log10(EC50) for N#Cc1ccc(-c2ccc(C[C@H](NC(=O)[C@@H]3Cc4cc5c(cc4CN3Cc3ncc[nH]3)OC(c3ccc(OCc4ccc(Cl)c(Cl)c4)cc3)C(=O)N5)C(=O)O)cc2)cc1 (stereo partly shown) ?
Result: 3.08
